Cited source: a melting point compilation (Tetko et al.; mined from patent text by program, amines drawn as free bases though some values may be those of a salt)

Listing of recorded melting point by entry.

Here's what some known entries look like.
C[C@]12CCC(=O)N[C@@H]1CCc1cc(-c3cccc4ccccc34)ccc12    247 to 248 °C
COC(CNc1ccc(C(O)(C(F)(F)F)C(F)(F)F)cc1)OC    72 to 74 °C
CCc1ccc(C2(OC(C)=O)C(=O)c3ccccc3C2=O)c(OC(C)=O)c1    136 to 137 °C

Looking up CSc1sc(-c2nccs2)c2c1-c1oncc1CC2 , I see its melting point listed as 165 to 168 °C

---

Listing of recorded melting point by entry.

Here's what some known entries look like.
CC1Oc2ccc(Br)c(C=NO)c2O1 (stereo not given)    208 to 209 °C
N#Cc1ccc(-c2nccc3[nH]c(=O)ccc23)cc1    > 300 °C
CCCC(=O)NCCc1c(OC)ccc2ccccc12    73 to 79 °C
CC(C)c1cccc(C(C)C)c1NC(=O)N(Cc1ccc(N(C)C)cc1)c1ccc(Cl)cc1    151 to 152 °C
CN1C(C(=O)Nc2ccccn2)=C(O)c2sc3ccccc3c2S1(=O)=O    222 to 224 °C

Looking up O=C1NC(=O)C(Cc2ccc(OC3CCN(C(=O)OCc4ccccc4)CC3)cc2)S1 (stereo not given) , I see its melting point listed as 72 to 74 °C

Looking up COC(=O)c1cc(-c2nc(COc3ccc(CCl)cc3OC)c(C)o2)ccc1C , I see its melting point listed as 139 to 140 °C

Looking up O=C1C(=O)c2ccccc2C2=C1SCC1(CCN(Cc3ccccc3)CC1)O2 , I see its melting point listed as 170 to 172 °C

Looking up CC(C(O)C=Cc1ccc(Cl)cc1)n1cncn1 (stereo not given) , I see its melting point listed as 117 to 118 °C

Looking up NC(=O)Cc1ccccc1CSc1nc2ccccc2[nH]1 , I see its melting point listed as 218 to 222 °C
